# TARGET OR SYSTEM: T1, human GITR on naïve CD4+ T cells (human, UniProt Q9Y5U5 26-241)
# T1 sequence: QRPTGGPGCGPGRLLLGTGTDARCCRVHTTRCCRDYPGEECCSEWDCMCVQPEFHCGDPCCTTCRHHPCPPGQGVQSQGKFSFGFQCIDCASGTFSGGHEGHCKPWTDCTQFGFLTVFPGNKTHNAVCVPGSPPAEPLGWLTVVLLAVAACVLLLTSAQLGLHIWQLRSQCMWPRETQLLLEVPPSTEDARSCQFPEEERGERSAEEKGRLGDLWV
# TEST NAME: cell-based or functional assay
Known proliferation of naïve CD4+ T cells, mean, at 30.1 ng/mL Ab of a selection of binders
ENDPOINT LABEL: proliferation of naïve CD4+ T cells, mean, at 30.1 ng/mL Ab

BINDER	VALUE REPORTED
31H6 (antibody, V domains shown, Parental rodent anti-human GITR monoclonal antibody from a hybridoma; kappa VL; also called 31H6.B7) VH: QVTLKESGPGILQPSQTLSLTCTFSGFSLSTYGVGVGWIRQPSGKGLEWLANIWWDDDKYYNPSLKNRLTISKDTSNNQAFLKITNVDTAETATYYCAQIKEPRDWFFEFWGPGTMVSVSS VL: DIQMTQTPSSMPASLGERVTIFCRASQGVNNYLTWYQQKPDGTIKPLIFYTSNLQSGVPSRFSGSGSGTDYSLSISSLEPEDFAMYYCQQYHGFPNTFGAGTKLELKR	94700
17F10 (antibody, V domains shown, Parental rodent anti-human GITR monoclonal antibody from a hybridoma; kappa VL; also called 17F10.B1) VH: EVKLVESGGGFVKPGGSLKLSCAASGFTVRNYAMSWVRQTPEKRLEWVASISTGDRSYLPDSMKGRFTISRDNARNILYLQMSSLRSEDTAIYYCQRYFDFDSFAFWGQGTLVTVSA VL: DIQMTQTPSSLSASLGDRVTISCRASQDINNFLNWYQQKPDGSLKLLIYYTSKLHSGVPSRFSGSGSGTDFSLTISNLDQEDVATYFCQQGHTLPPTFGGGTKLEVKR	87000
49A1 (antibody, V domains shown, Parental rodent anti-human GITR monoclonal antibody from a hybridoma; kappa VL; also called 49A1.B1) VH: EVQLQESGPSLVKPSQTLSLTCSVTGDSITSGYWNWIRKFPGNKFEYMGFISYSGNTYYNPSLRSRISITRDTSKNQYFLHLNSVTTEDTATYYCSRRHLISGYGWFAYWGQGTLVTVSA VL: VIVMTQSHKFMSTSIGDRVNITCKASQDVISAVAWYQQKPGQSPKLLIYWASTRHTGVPDRFTGSGSGTDFTLTINSVQAEDRALYYCQQHSYTPPWTFGGGTNLEIKR	95500
